Recorded measurements of yeast fitness, one per entry
B1: tRNA (parent)
chain: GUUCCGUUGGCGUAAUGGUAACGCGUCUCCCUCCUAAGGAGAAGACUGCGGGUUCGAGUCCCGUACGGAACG

variants of: B1; test: yeast fitness relative to wild type (ratio to wild type); higher = fitter; tRNA-Arg(CCU), competitive growth, 37 C, YPD
Variants at the floor of the assay were thinned out.
Quick one: just the number, no unit, thanks!

The cases that follow already have their yeast fitness on record.
INSERT INTO assay_data (constructsequence, numericresult) VALUES
  ('GUUCAGUUGGCGUAAUGGUAACGCGUCUCCCUCCUAAGGAGAAGACUGCGGGUUCGACUCCCGUACGGACCG [C5A G58C A70C]', 0.644),
  ('GUUCCGUUGGCGUAAUGGUAACGCGUCUCGCUCCUAAGGAGAAGGCUGCGGGUUCAAGUCCCGUACGGAACG [C30G A45G G56A]', 0.526),
  ('GUUCCGUUGGCGUAGUGGUAACGCGUCUCCCUCCUUAGGAGAAGACUGCGGGUUCGAGUCCCGUACGGAACG [A15G A36U]', 0.679),
  ('GUUGCGUUGGCGUAAUGGUAACGCGUCACCGUCCUAAGGAGAAGACUGCGGGUUCGGGUCCUGUACGGAACG [C4G U28A C31G A57G C62U]', 0.532);

Return the recorded yeast fitness value; entry: GUUCCGUUGGCGUAAUGGUAACGCGUCUCCCACCUAAGGAGAAGACUGCGGGUUCGAGUCCCGUACGGAACG [U32A] 0.742

Return the recorded yeast fitness value; entry: GUUCCGUUGGCGUAAUGGUAACGCGUCUCCUUGCUAAGGAGAAGACUGCCGGUUCGAGUCCCGUACGGAACG [C31U C33G G50C] 0.508

All values here come from the RNAGym collection of RNA variant scans (doi:10.1126/science.aae0568).
